The measured values listed here are drawn from ChEMBL document CHEMBL1201862.

System: CCRF-CEM
ASSAY_DETAILS: NCI tumour cell line growth inhibition, 48 h
Calls of active or inactive are those of the source. Rule as the data show it: active = GI50 up to about 1.1 µM and inactive = higher.
Your reply should match one of these outcome classes. t = active, f = inactive

Worked set:
| MOLECULE | CLASSIFICATION |
| --- | --- |
| CN(c1ccccc1Cl)S(=O)(=O)c1ccccc1 | f |
| CCOC(=O)C(NC(=O)c1ccccc1)(N1CCN(c2cc3c(cc2F)c(=O)c(C(=O)O)cn3C2CC2)CC1)C(F)(F)F (centres undefined) | f |
| C=C1C(=O)OC2C1C(OC(=O)/C(=C/C)COC(C)=O)CC1(CO1)C1C(OC(=O)/C(=C/C)CO)C=C(C)C21 (centres undefined) | t |
| Nc1ccccc1C(=O)N/N=C1\C(=O)Nc2ccccc21 | f |

[Q] Field: outcome | Entry: Cc1ccc([C@H]2CC(=O)C[C@H](c3ccc(C)cc3)C23C(=O)c2ccccc2C3=O)cc1
[A] f

[Q] Would you mind telling me which call this test gave CCN(CC)CC1CCCCN1CC(=O)N1c2ccccc2NC(=O)c2ccccc21 (centres undefined) ?
[A] f

[Q] GET /call?item= COc1cc2c(cc1C)[n+]([O-])c(C)c(C(=O)C/C(=N/NC(=O)C[N+](C)(C)C)C(=O)Nc1cccc(Cl)c1C)[n+]2[O-] returns the recorded outcome of this test.
[A] f

[Q] I'd appreciate the recorded outcome for Cc1cc(=O)oc2c1cc1ccc3cccc4ccc2c1c34 from this test.
[A] f

[Q] Hey, what did the test say about CCOC(=O)c1sc2nc(-c3ccccc3)nn2c1CBr ?
[A] t

====

System: LOX IMVI
ASSAY_DETAILS: NCI tumour cell line growth inhibition, 48 h
The source made the active and inactive calls. Rule as the data show it: active = GI50 up to about 1.1 µM and inactive = higher.
I'd appreciate it if you could supply GI50 values for the items below.

Example entries begin here.
| COMPOUND | VALUE_KIND | RESULT |
| --- | --- | --- |
| COC(=O)c1ccc(C=C(C#N)C#N)cc1 | GI50 | 21 µM (inactive) |
| COC(=O)C1C=CCON2CCc3c(n(S(=O)(=O)c4ccccc4)c4ccccc34)C12 (stereo unspecified) | GI50 | 33.3 µM (inactive) |
| Cc1cn([C@@H]2O[C@H](CO)[C@@H](O)[C@@H]2O)c(=O)[nH]c1=O | GI50 | > 1000 µM (inactive) |
| O=C1c2scc(-c3ccc(Cl)cc3)c2-n2cccc21 | GI50 | > 100 µM (inactive) |

Each compound below has a reported value. Please supply its GI50.
1. COc1ccccc1C(=O)c1c(NCc2ccccc2)c(=O)c1=O
2. CCOC(=O)C1=C(N2CCCC2)NC(=O)CC1=O

[A]
1: 29.9 µM (inactive); 2: > 100 µM (inactive)

====

Test system: UO-31
ASSAY_DETAILS: NCI tumour cell line growth inhibition, 48 h
Activity calls are given as the source filed them. Rule as the data show it: active = GI50 up to about 1.1 µM and inactive = higher.
VALUE_KIND: GI50

Recorded GI50, per entry:
| MOLECULE | GI50 |
| --- | --- |
| NNC(=O)CC(=O)Nc1ccccc1F | > 100 µM (inactive) |
| CCOC(=O)C12CCCC1(O)N(NC(N)=O)C(C)=C2C(=O)OC (stereo not drawn) | > 100 µM (inactive) |
| COc1ccc(C(=O)C(c2ccc(OCc3ccccc3)cc2)c2ccc(OCc3ccccc3)cc2)cc1 | > 100 µM (inactive) |
| CN(C)/N=N/c1ccccc1 | 26.8 µM (inactive) |
| CC1(C)CC(=O)C(=CNc2nc(-c3ccc(Br)cc3)cs2)C(=O)C1 | 21.9 µM (inactive) |
| O=C1CCc2c(sc3ncnc(Nc4cccc(Br)c4)c23)C1 | 1.99 µM (inactive) |
| N#Cc1c2ccc([N+](=O)[O-])cc2c(=O)n2c1sc1ccc(C(F)(F)F)cc12 | > 100 µM (inactive) |
| O=[N+]([O-])c1ccc(CSCc2ccc(Cl)cc2)cc1 | > 100 µM (inactive) |
| CC(=O)Oc1ccc(/C=C/C(=O)O[C@H]2CCCC[C@@H]2OC(=O)/C=C/c2ccc(OC(C)=O)c(OC(C)=O)c2)cc1OC(C)=O | 3.54 µM (inactive) |
| COC1=CC(=O)C[C@@H](C)[C@]12Oc1c(Cl)c(OC)cc(OC)c1C2=O | 43.7 µM (inactive) |

Batch request: GI50 per item, same order as input.
1. CN(c1ccccc1Cl)S(=O)(=O)c1ccccc1
2. NNC(=O)CC(=O)Nc1ccccc1Cl
3. C[N+](C)(C)CCc1ccccc1

[A]
1. 52.4 µM (inactive)
2. > 100 µM (inactive)
3. > 100 µM (inactive)
